Assay: Kinetic solubility in PBS pH 7.4, HPLC-UV (Example 21, Table 27)
Format: physicochemical
Conditions: phosphate buffered saline, aqueous buffer, kinetic from dmso stock, 0.5 M PBS, shaken minimum 24 h at approximately 25° C., HPLC-UV 270 nm
Experimental Endpoint: solubility kinetic (µM)
Numbers only, in µM.

Molecular String	solubility kinetic / µM
COc1cc(CC(=O)N2CCN(C)CC2)ccc1CN1C(=O)N(c2ccc(OC)c(OCCCC3CC3)c2)CC[C@@H]1C	275

solubility kinetic lookup needed for CCCCCOc1cc(N2CCCN(Cc3ccnc4c3c(Cl)cn4CC(=O)NOC)C2=O)ccc1OC , thanks.
10

* * *

Target: Human C5 (Homo sapiens)
Construct: purchased Complement Technology
Sequence (P01031 19-1676): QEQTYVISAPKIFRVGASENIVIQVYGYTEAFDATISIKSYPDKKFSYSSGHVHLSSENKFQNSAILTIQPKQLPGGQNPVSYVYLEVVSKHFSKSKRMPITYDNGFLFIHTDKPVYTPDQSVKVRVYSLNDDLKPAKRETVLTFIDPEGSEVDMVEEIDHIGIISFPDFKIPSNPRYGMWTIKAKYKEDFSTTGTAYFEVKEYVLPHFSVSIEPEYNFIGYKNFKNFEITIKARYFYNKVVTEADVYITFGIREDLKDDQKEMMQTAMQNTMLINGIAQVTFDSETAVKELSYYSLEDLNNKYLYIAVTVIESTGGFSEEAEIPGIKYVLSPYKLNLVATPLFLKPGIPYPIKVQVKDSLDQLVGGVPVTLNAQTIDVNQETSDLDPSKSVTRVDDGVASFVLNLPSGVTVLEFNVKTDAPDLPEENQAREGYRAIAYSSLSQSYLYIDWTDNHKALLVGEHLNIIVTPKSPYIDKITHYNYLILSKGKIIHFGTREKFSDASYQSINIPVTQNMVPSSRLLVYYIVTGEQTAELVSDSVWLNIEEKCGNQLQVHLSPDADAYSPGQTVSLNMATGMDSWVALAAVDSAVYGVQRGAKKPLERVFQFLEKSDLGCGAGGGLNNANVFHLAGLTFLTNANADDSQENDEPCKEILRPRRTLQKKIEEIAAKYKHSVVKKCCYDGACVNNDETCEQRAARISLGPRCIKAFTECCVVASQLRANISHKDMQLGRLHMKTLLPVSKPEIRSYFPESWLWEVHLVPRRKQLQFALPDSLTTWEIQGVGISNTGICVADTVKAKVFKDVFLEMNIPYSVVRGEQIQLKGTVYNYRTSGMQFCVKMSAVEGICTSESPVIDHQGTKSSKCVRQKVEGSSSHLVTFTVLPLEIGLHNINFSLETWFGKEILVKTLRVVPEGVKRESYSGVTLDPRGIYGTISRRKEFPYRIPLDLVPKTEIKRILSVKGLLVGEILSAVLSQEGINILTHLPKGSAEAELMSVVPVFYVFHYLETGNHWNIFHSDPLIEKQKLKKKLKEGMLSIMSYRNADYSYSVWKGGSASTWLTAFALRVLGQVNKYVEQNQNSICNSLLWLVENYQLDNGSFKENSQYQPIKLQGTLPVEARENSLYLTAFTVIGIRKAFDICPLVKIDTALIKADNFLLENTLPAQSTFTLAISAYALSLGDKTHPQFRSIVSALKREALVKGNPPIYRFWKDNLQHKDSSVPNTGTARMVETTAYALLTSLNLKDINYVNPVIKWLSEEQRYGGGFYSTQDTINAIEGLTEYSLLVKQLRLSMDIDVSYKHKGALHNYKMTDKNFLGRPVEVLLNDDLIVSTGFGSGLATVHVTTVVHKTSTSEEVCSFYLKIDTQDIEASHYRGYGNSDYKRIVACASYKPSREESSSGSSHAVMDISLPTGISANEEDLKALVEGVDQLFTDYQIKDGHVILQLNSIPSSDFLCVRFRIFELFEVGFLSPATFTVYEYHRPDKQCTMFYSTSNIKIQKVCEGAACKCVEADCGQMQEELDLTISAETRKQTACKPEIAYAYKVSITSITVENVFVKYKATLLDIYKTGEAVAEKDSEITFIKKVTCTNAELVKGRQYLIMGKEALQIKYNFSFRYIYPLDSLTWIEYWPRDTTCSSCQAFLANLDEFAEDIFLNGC
Experiment: Red blood cell (RBC) hemolysis assay, luminescent (Example 28, Table 32)
Assay type: cell-based
Conditions: sheep EA cells, 1.5% C5-depleted human serum, 0.5 nM human C5, 1 hour at 37° C., luminescence (Table 32)
Experimental Endpoint: pIC50
Answers are plain numbers, as −log10 of the molar value.

Compound	Experimental Endpoint	Readout Number
C=C1CN(Cc2ccc(C#N)cc2OC)C(=O)N(c2ccc(OC)c(OCCCCC)c2)C1 [SC0226]	pIC50	6.88
COc1cc(CC(=O)N2CCNC(=O)C2)ccc1CN1CC(C)CN(c2ccc(OC)c(OCCCC3CC3)c2)C1=O (centres unmarked) [SC0158]	pIC50	8.57
CCCCCOc1cc(N2CC(C(N)=O)CN(Cc3ccc(CNC(C)=O)cc3OC)C2=O)ccc1OC (centres unmarked) [SC0199]	pIC50	8.01
CCCCCOc1cc(N2CC[C@H](C)N(Cc3cccc4c3ccn4CC(=O)N3CCO[C@H](CN(C)C)C3)C2=O)ccc1OC [SC0177]	pIC50	8.33
CCCCCOc1cc(N2CC[C@H](C)N(Cc3ccc(CC(=O)N4CCOC(CN(C)C)C4)cc3OC)C2=O)ccc1OC (some centres unmarked) [SC0153]	pIC50	8.64
COc1cc(CCO)ccc1CN1C(=O)N(c2ccc(OC)c(OCCCC3CC3)c2)CC[C@@H]1C [SC0180]	pIC50	8.31
CCCCCOc1cc(N2CC[C@H](C)N(Cc3ccnc4c3c(Cl)cn4C3COC3)C2=O)ccc1OC [SC0151]	pIC50	8.66

Quick one: pIC50 for CCCCCOc1cc(N2CC[C@H](C)N(Cc3cccc4c3c(Cl)c(Cl)n4CC(=O)N(C)C)C2=O)ccc1OC [SC0181] ?
8.29

* * *

Assay: Permeability assay, unidirectional transport, Papp (Example 30, Table 34)
Assay type: in vitro ADME, canine
Conditions: dog, pH 7.4; MDCK-WT cell monolayers, A-to-B, 3 μM test compound, 37° C., duplicate determinations
Task for the reader: assign each of the following molecules its reported Papp A→B at 3 μM.
Answers are plain numbers, in ×10⁻⁶ cm/s.

Worked cases, Papp A→B at 3 μM given:
Molecule	Unit String	Papp A→B at 3 μM
CCCCCOc1cc(N2CCCN(Cc3ccnc4c3c(Cl)cn4CC(=O)N3CCO[C@H](CN(C)C)C3)C2=O)ccc1OC	×10⁻⁶ cm/s	1.7
CCCCCOc1cc(N2CCCN(Cc3ccc(CC(=O)N4CCOC(CN(C)C)C4)cc3OC)C2=O)ccc1OC (racemic)	×10⁻⁶ cm/s	2.4
COc1ccc(N2CCCN(Cc3ccnc4c3c(Cl)cn4CC(=O)N3CCOC(CN(C)C)C3)C2=O)cc1OCCCC1CC1 (stereo not shown)	×10⁻⁶ cm/s	0.7

Batch lookup, Papp A→B at 3 μM per entry.
1. COc1cc(CC(=O)N[C@H]2CN(C)C[C@H]2F)ccc1CN1C(=O)N(c2ccc(OC)c(OCCCC3CC3)c2)CC[C@@H]1C
2. CCCCCOc1cc(N2CC[C@H](C)N(Cc3ccnc4c3c(Cl)cn4CC(=O)N3CC(O)C3)C2=O)ccc1OC
3. CCCCCOc1cc(N2CC[C@H](C)N(Cc3cccc4c3ccn4CC(=O)N3CCO[C@H](CN(C)C)C3)C2=O)ccc1OC

4.8
6.6
1.3

Dear colleague, I am looking for the recorded Papp A→B at 3 μM of the following molecule: CCCCCOc1cc(N2CCCN(Cc3ccnc4c3c(Cl)cn4CC(=O)N3C[C@H]4C[C@@H]3CO4)C2=O)ccc1OC
22.7
